I'd be grateful if you could share measured melting point for these entries.

Query: Specify measured melting point for O=C1C(=O)c2ccccc2C2=C1SCC1(CCN(CC(O)Cc3ccc(Cl)cc3)CC1)O2 (stereo not drawn) .
Response: 195 to 196 °C

Query: Specify measured melting point for CC(C)(C)c1ccc(OC[C@@H](O)CN2CCC3(CC2)CSC2=C(O3)c3cc(F)ccc3C(=O)C2=O)cc1 .
Response: 114 to 116 °C

Query: Specify measured melting point for CC(C)(C)c1ccc(OC[C@@H](O)CN2CCC3(CC2)CSC2=C(O3)c3cc(N4CCOCC4)ccc3C(=O)C2=O)cc1 .
Response: 107 to 109 °C

Query: Specify measured melting point for O=C1C(=O)c2ccccc2C2=C1SCC1(CCC3(CC1)OCCO3)O2 .
Response: 251 to 252 °C

Query: Specify measured melting point for COc1ccc2c(c1)C(=O)C(=O)C1=C2OC2(CCN(C(=O)c3cccc(Cl)c3)CC2)CS1 .
Response: 130 °C (dec.)

Query: Specify measured melting point for Cl.Cl.O=C1C(=O)c2ccc(N3CCOCC3)cc2C2=C1SCC1(CCNCC1)O2 .
Response: > 300 °C

Query: Specify measured melting point for NC(=O)N1CCC2(CC1)CSC1=C(O2)c2ccccc2C(=O)C1=O .
Response: 218 to 220 °C

Query: Specify measured melting point for O=C1C(=O)c2ccc(-c3ccccc3)cc2C2=C1SCC1(CCN(C(=O)c3cccc(Cl)c3)CC1)O2 .
Response: 240 to 241 °C

Query: Specify measured melting point for O=C1C(=O)c2ccccc2C2=C1SCC1(CCN(C[C@H](O)COc3ccc4ccccc4c3)CC1)O2 .
Response: 164 to 167 °C

Query: Specify measured melting point for O=C1C(=O)c2ccc(-c3ccccc3)cc2C2=C1SCC1(CCN(C(=O)Oc3cccc(C(F)(F)F)c3)CC1)O2 .
Response: 188 to 190 °C

Query: Specify measured melting point for O=C1C(=O)c2ccccc2C2=C1SCC1(CCN(C(=O)NS(=O)(=O)c3ccc(F)cc3)CC1)O2 .
Response: 173 to 180 °C

Query: Specify measured melting point for O=C1C(=O)c2ccc(Br)cc2C2=C1SCC1(CCN(C(=O)c3cccc(Cl)c3)CC1)O2 .
Response: 135 to 140 °C

Query: Specify measured melting point for O=C1C(=O)c2ccc(-c3ccccc3C(F)(F)F)cc2C2=C1SCC1(CCNCC1)O2 .
Response: 125 to 127 °C

Query: Specify measured melting point for COc1ccc2c(c1)C(=O)C(=O)C1=C2OC2(CCN(C[C@H](O)COc3ccc(C(C)(C)C)cc3)CC2)CS1 .
Response: 188 to 190 °C

Query: Specify measured melting point for O=C1C(=O)c2ccc(-c3ccncc3)cc2C2=C1SCC1(CCN(C(=O)c3cccc(Cl)c3)CC1)O2 .
Response: 265 to 267 °C

Query: Specify measured melting point for O=C1C(=O)c2ccc(Br)cc2C2=C1SCC1(CCN(Cc3ccc(F)cc3)CC1)O2 .
Response: 210 to 211 °C

Query: Specify measured melting point for CC(C)(C)c1ccc(OC[C@@H](O)CN2CCC3(CC2)CSC2=C(O3)c3cc(-c4ccccc4)ccc3C(=O)C2=O)cc1 .
Response: 151 to 152 °C

Query: Specify measured melting point for COc1ccc2c(c1)C1=C(SCC3(CCN(C[C@H](O)COc4ccc(F)cc4)CC3)O1)C(=O)C2=O .
Response: 80 to 81 °C

====

- Test system: DLD-1 human colon carcinoma cells
- test-description: MTS cell viability assay, DLD-1 human colon carcinoma cells
- Assay type: cell-based
- condition-description: DLD-1, 4 h compound incubation, MTS, read-out: IC50 Values, Cancerous Cells, Colon DLD-1
# Condition met = IC50 below 4 µM (exclusive); Condition not met = IC50 at/above 4 µM

Query: Could you please tell me whether IC50 recorded for O=C1C(=O)c2ccccc2C2=C1SCC1(CCN(C(=O)C3CCCCC3C(=O)O)CC1)O2 (centres unmarked) is less than 4 µM?
Response: Condition not met

Query: Could you please tell me whether IC50 recorded for O=C1C(=O)c2ccccc2C2=C1SCC1(CCN(c3cnccn3)CC1)O2 is less than 4 µM?
Response: Condition not met

Query: Could you please tell me whether IC50 recorded for O=C1C(=O)c2ccccc2C2=C1SCC1(CCN(CCOc3ccc(Cl)cc3)CC1)O2 is less than 4 µM?
Response: Condition met

Query: Could you please tell me whether IC50 recorded for O=C1C(=O)c2ccccc2C2=C1SCC1(CCN(CC(O)Cc3ccccc3)CC1)O2 (centres unmarked) is less than 4 µM?
Response: Condition met

Query: Could you please tell me whether IC50 recorded for O=C1C(=O)c2ccccc2C2=C1SCC1(CCN(C[C@H](O)COc3ccc(F)cc3)CC1)O2 is less than 4 µM?
Response: Condition met

Query: Could you please tell me whether IC50 recorded for O=C1C(=O)c2ccccc2C2=C1SCC1(CCN(C(=O)c3cccc(C(F)(F)F)c3)CC1)O2 is less than 4 µM?
Response: Condition met

Query: Could you please tell me whether IC50 recorded for O=C1C(=O)c2ccccc2C2=C1SCC1(CCN(C(=O)Nc3ccc(F)cc3)CC1)O2 is less than 4 µM?
Response: Condition met

Query: Could you please tell me whether IC50 recorded for O=C1C(=O)c2ccccc2C2=C1SCC1(CCN(C[C@H](O)Cc3ccccc3)CC1)O2 is less than 4 µM?
Response: Condition met

Query: Could you please tell me whether IC50 recorded for O=C1C(=O)c2ccccc2C2=C1SCC1(CCN(C(=O)c3ccco3)CC1)O2 is less than 4 µM?
Response: Condition met

Query: Could you please tell me whether IC50 recorded for O=C1C(=O)c2ccccc2C2=C1SCC1(CCN(CC3CCCCC3)CC1)O2 is less than 4 µM?
Response: Condition met

Query: Could you please tell me whether IC50 recorded for O=C1C(=O)c2ccccc2C2=C1SCC1(CCN(CCOc3ccccc3)CC1)O2 is less than 4 µM?
Response: Condition met

Query: Could you please tell me whether IC50 recorded for CS(=O)(=O)N1CCC2(CC1)CSC1=C(O2)c2ccccc2C(=O)C1=O is less than 4 µM?
Response: Condition not met

Query: Could you please tell me whether IC50 recorded for Cc1nn(C)c(Cl)c1S(=O)(=O)N1CCC2(CC1)CSC1=C(O2)c2ccccc2C(=O)C1=O is less than 4 µM?
Response: Condition not met

Query: Could you please tell me whether IC50 recorded for O=C1C(=O)c2ccccc2C2=C1SCC1(CCN(C(=O)Nc3ccccc3)CC1)O2 is less than 4 µM?
Response: Condition not met

Query: Could you please tell me whether IC50 recorded for C=CC(C)(O)CN1CCC2(CC1)CSC1=C(O2)c2ccccc2C(=O)C1=O (centres unmarked) is less than 4 µM?
Response: Condition not met

====

- System: PACA-2 human pancreatic carcinoma cells
- test-description: MTS cell viability assay, PACA-2 human pancreatic carcinoma cells
- Type: cell-based
- condition-description: PaCa-2, 4 h, read-out: IC50 Values, Cancerous Cells, Pancreas PACA-2
measure-name: pIC50
The scale used: pIC50 is minus the common logarithm of the concentration in molar units.

Query: Specify measured pIC50 for Cc1ccc(OC(=O)N2CCC3(CC2)CSC2=C(O3)c3ccccc3C(=O)C2=O)cn1 [Compound 111] .
Response: 5.77

====

Counter-ions that a name gives are not always drawn.
I'd be grateful if you could share measured melting point for these entries.

Query: Specify measured melting point for CC(C)(C)OC(=O)N1CCC2(CC1)CSC1=C(O2)c2cc(-c3cccnc3)ccc2C(=O)C1=O .
Response: 217 to 219 °C

Query: Specify measured melting point for CC(C)N1CCC2(CC1)CSC1=C(O2)c2ccccc2C(=O)C1=O .
Response: 197 to 198 °C

Query: Specify measured melting point for COc1ccc2c(c1)C1=C(SCC3(CCN(C(=O)c4cccc(Cl)c4)CC3)O1)C(=O)C2=O .
Response: 125 to 127 °C

Query: Specify measured melting point for O=C1C(=O)c2ccc(-c3cccnc3)cc2C2=C1SCC1(CCN(C(=O)c3cccc(Cl)c3)CC1)O2 .
Response: 240 to 242 °C

Query: Specify measured melting point for O=C1C(=O)c2ccc(Br)cc2C2=C1SCC1(CCN(C[C@H](O)COc3ccc4cc(Br)ccc4c3)CC1)O2 .
Response: 104 to 105 °C

Query: Specify measured melting point for O=C1C(=O)c2ccc(-c3ccc(C(F)(F)F)cc3)cc2C2=C1SCC1(CCNCC1)O2 .
Response: 190 to 240 °C

Query: Specify measured melting point for O=C(NC1CCC2(CC1)CSC1=C(O2)c2ccccc2C(=O)C1=O)Oc1cccc(C(F)(F)F)c1 (centres unmarked) (as salt: hydrochloride) .
Response: 198 to 199 °C

Query: Specify measured melting point for O=C1C(=O)c2ccc(-c3cccc(C(F)(F)F)c3)cc2C2=C1SCC1(CCNCC1)O2 .
Response: 199 to 203 °C
